Tested on: SUM149
Run description: percent difference in area under dose-response curve of relative cell number, RPMI vs HPLM; higher = drug relatively more effective in HPLM than RPMI (negative = less effective in HPLM)
Conditions used: treatment time: 72 h; dose range: 10-point, 1 nM to 20 µM; media compared: RPMI vs HPLM
Property name: percent difference in area under dose-response curve (%)
Answers are plain numbers, in %.

Recorded results for 10 compounds are shown here.
CO[C@H]1C[C@@H]2CC[C@@H](C)[C@@](O)(O2)C(=O)C(=O)N2CCCC[C@H]2C(=O)O[C@H]([C@H](C)C[C@@H]2CC[C@@H](OP(C)(C)=O)[C@H](OC)C2)CC(=O)[C@H](C)/C=C(\C)[C@@H](O)[C@@H](OC)C(=O)[C@H](C)C[C@H](C)/C=C/C=C/C=C/1C    2.18
Nc1nc(F)nc2c1ncn2[C@@H]1O[C@H](COP(=O)(O)O)[C@@H](O)[C@@H]1O [Fludarabine_Phosphate]    -16.9
CCCc1cc(-c2nc(-c3ccc(C)cc3)cs2)ccn1    -2.81
CN(C)CCOc1ccc(-c2nc(-c3ccncc3)c(-c3ccc4c(c3)CC/C4=N\O)[nH]2)cc1    -4.32
CCOc1cc2ncc(C#N)c(Nc3ccc(F)c(Cl)c3)c2cc1NC(=O)/C=C/CN(C)C    4.27
CN(Cc1cnc2nc(N)nc(N)c2n1)c1ccc(C(=O)N[C@@H](CCC(=O)O)C(=O)O)cc1 [Abitrexate]    -8.44
O=C(O)Cc1cccc(OCCCN(Cc2cccc(C(F)(F)F)c2Cl)CC(c2ccccc2)c2ccccc2)c1    1.28
CC(=O)N1CCN(c2ccc(OCC3COC(Cn4ccnc4)(c4ccc(Cl)cc4Cl)O3)cc2)CC1 (stereo not given)    -8.22
CC(NC(=O)c1ccccc1/N=C/c1c(O)ccc2ccccc12)c1ccccc1 (stereo not given)    -4.04
O=C(CCCCCCC(=O)Nc1ccccc1)NO    4.7

Quick batch: percent difference in area under dose-response curve for everything below.
1. Cc1ccc([C@@H]2O[C@H](CO)[C@@H](O)[C@H](O)[C@H]2O)cc1Cc1ccc(-c2ccc(F)cc2)s1
2. O=C(Nc1ccc(OC(F)(F)F)cc1)c1sccc1NCc1ccnc2ccccc12
3. CCN1CCN(Cc2ccc(-c3cc4c(N[C@H](C)c5ccccc5)ncnc4[nH]3)cc2)CC1
4. CS(=O)(=O)CCNCc1ccc(-c2ccc3ncnc(Nc4ccc(OCc5cccc(F)c5)c(Cl)c4)c3c2)o1 [Lapatinib_Ditosylate]
5. O=C(CCCCCCC(=O)Nc1ccc([C@H]2O[C@@H](CSc3nc(-c4ccccc4)c(-c4ccccc4)o3)C[C@@H](c3ccc(CO)cc3)O2)cc1)NO

A)
1: -4.56; 2: 6.56; 3: -3.13; 4: -5.86; 5: -4.43

---

Exercise: state measured percent difference in area under dose-response curve for each of the compounds provided.
System: SUM149
Run description: percent difference in area under dose-response curve of relative cell number, RPMI vs HPLM; higher = drug relatively more effective in HPLM than RPMI (negative = less effective in HPLM)
Conditions used: treatment time: 72 h; dose range: 10-point, 1 nM to 20 µM; media compared: RPMI vs HPLM
One number for each entry, in %.

CCCCC[C@H](CC(=O)NO)C(=O)N[C@H](C(=O)N1CCC[C@H]1CO)C(C)C    1.68

Quick batch: percent difference in area under dose-response curve for everything below.
1. Cc1ccc(C)c(Oc2ccncc2C(=O)N2CCN(C3CC3)c3ccccc32)c1
2. Cc1cnc(Nc2ccc(OCCN3CCCC3)cc2)nc1Nc1cccc(S(=O)(=O)NC(C)(C)C)c1 [Fedratinib]
3. C[C@H]1O[C@@H](O[C@H]2[C@@H](O)C[C@H](O[C@H]3[C@@H](O)C[C@H](O[C@H]4CC[C@@]5(C)[C@H](CC[C@@H]6[C@@H]5CC[C@]5(C)[C@@H](C7=CC(=O)OC7)CC[C@]65O)C4)O[C@@H]3C)O[C@@H]2C)C[C@H](O)[C@@H]1O
4. CC1(C)C=C(CN2C/C(=C\c3ccc(F)cc3)C(=O)/C(=C/c3ccc(F)cc3)C2)C(C)(C)N1O
5. C#Cc1cccc(Nc2ncnc3cc(OCCOC)c(OCCO)cc23)c1

A)
1. -4.99
2. -9.15
3. -8.01
4. 2.04
5. -0.553

Q) Give the reported value of percent difference in area under dose-response curve for this record: `CN(c1ncccc1CNc1nc(Nc2ccc3c(c2)CC(=O)N3)ncc1C(F)(F)F)S(C)(=O)=O`
A) -16.2

---

Tested on: SUM149
Run description: percent difference in area under dose-response curve of relative cell number, RPMI vs HPLM; higher = drug relatively more effective in HPLM than RPMI (negative = less effective in HPLM)
Conditions used: treatment time: 72 h; dose range: 10-point, 1 nM to 20 µM; media compared: RPMI vs HPLM
Exercise: state measured percent difference in area under dose-response curve for each of the molecules provided.
Numbers only, in %.

Recorded results for 2 molecules are shown here.
COc1cc2c(N3CCN(C(=O)Nc4ccc(OC(C)C)cc4)CC3)ncnc2cc1OCCCN1CCCCC1    -4.18
Cc1ccc(-n2nc(C(C)(C)C)cc2NC(=O)Nc2ccc(OCCN3CCOCC3)c3ccccc23)cc1    -3.95

Quick batch: percent difference in area under dose-response curve for everything below.
1. Cc1cccc(CC(=O)N2CCc3c2ccc(-c2cn(C)c4ncnc(N)c24)c3F)n1
2. CN1CCC(CNc2ccc3ncc(-c4cccc(OC(F)(F)F)c4)n3n2)CC1 [SGI1776_free_base]
3. CC[C@H](CO)Nc1nc(NCc2ccccc2)c2ncn(C(C)C)c2n1
4. COc1c(C)c2c(c(O)c1C/C=C(\C)CCC(=O)O)C(=O)OC2
5. CN(C)CCCn1cc(C2=C(c3c[nH]c4ccccc34)C(=O)NC2=O)c2ccccc21

A)
1: -5.2; 2: -10.5; 3: -1.29; 4: -8.4; 5: 0.14

Q) Give the reported value of percent difference in area under dose-response curve for this record: `CC(C)(C)c1ccc(S(=O)(=O)NCc2ccc(C(=O)Nc3cccnc3)cc2)cc1`
A) -12.4

---

System: SUM149
Run description: percent difference in area under dose-response curve of relative cell number, RPMI vs HPLM; higher = drug relatively more effective in HPLM than RPMI (negative = less effective in HPLM)
Conditions used: treatment time: 72 h; dose range: 10-point, 1 nM to 20 µM; media compared: RPMI vs HPLM
Property name: percent difference in area under dose-response curve
Your reply should be a number followed by the unit it is expressed in.

Cc1nccn1-c1ccc(Sc2cccc(C3(C(N)=O)CCOCC3)c2)cc1    -9.07%
CN1CCCN(C(=O)c2cccc(-c3ccc(/C=C4/C(=O)Nc5ccc(Cl)cc54)o3)c2)CC1    -26.8%
CC(C)Oc1ccc(C(=O)N[C@H](CNC(=O)CN(C)C)Cc2ccc(-c3cn4cccc([C@H](C)O)c4n3)cc2)cc1Cl    -23.9%
Cc1ccccc1C(C(=O)NC1CCCC1)N(C(=O)Cn1cnc2ccccc21)c1cccc(F)c1 (stereo not given)    -1.67%

Q) Provide percent difference in area under dose-response curve, tested on SUM149, for `COc1cccc2c(NCc3ccccc3)nc(-n3c(N)nc4ccccc43)nc12` .
A) -7.47%

---

System: SUM149
Run description: percent difference in area under dose-response curve of relative cell number, RPMI vs HPLM; higher = drug relatively more effective in HPLM than RPMI (negative = less effective in HPLM)
Conditions used: treatment time: 72 h; dose range: 10-point, 1 nM to 20 µM; media compared: RPMI vs HPLM
Property name: percent difference in area under dose-response curve

Recorded results for 4 compounds are shown here.
Cc1nc(=O)c2cc(CN(C)c3ccc(C(=O)N[C@@H](CCC(=O)O)C(=O)O)s3)ccc2[nH]1    0.127%
Oc1cccc(-c2nc(N3CCOCC3)c3oc4ncccc4c3n2)c1    3.18%
Nc1ccccc1NC(=O)c1ccc(CNc2nccc(-c3cccnc3)n2)cc1    0.546%
Nc1nc(Nc2ccc(S(N)(=O)=O)cc2)nn1C(=O)c1c(F)cccc1F    -1.01%

We now examine a further compound.
Q) Give the reported value of percent difference in area under dose-response curve for this record: `C=CC(=O)Nc1cccc(Nc2nc(Nc3ccc(NC4CN(CCF)C4)cc3OC)ncc2C(F)(F)F)c1`
A) 10.4%

---

Tested on: SUM149
Run description: percent difference in area under dose-response curve of relative cell number, RPMI vs HPLM; higher = drug relatively more effective in HPLM than RPMI (negative = less effective in HPLM)
Conditions used: treatment time: 72 h; dose range: 10-point, 1 nM to 20 µM; media compared: RPMI vs HPLM
Exercise: state measured percent difference in area under dose-response curve for each of the compounds provided.
Answers are plain numbers, in %.

Recorded results for 3 compounds are shown here.
Fc1cc(-c2cccc3ncc(-c4cnn(C5CCNCC5)c4)nc23)cc(F)c1CN1CCOCC1    2.04
COc1cc(Nc2ncc3c(n2)-c2ccc(Cl)cc2C(c2c(F)cccc2OC)=NC3)ccc1C(=O)O    -13.5
CCCS(=O)(=O)Nc1ccc(F)c(C(=O)c2c[nH]c3ncc(-c4ccc(Cl)cc4)cc23)c1F [Vemurafenib]    6.44

Quick batch: percent difference in area under dose-response curve for everything below.
1. CNC(=O)c1cc(Oc2ccc(NC(=O)Nc3ccc(Cl)c(C(F)(F)F)c3)c(F)c2)ccn1 [Regorafenib]
2. O=C1c2c(O)ccc(O)c2C(=O)c2c(NCCNCCO)ccc(NCCNCCO)c21 [Mitoxantrone]
3. OCCN(CCO)c1nc(N2CCCCC2)c2nc(N(CCO)CCO)nc(N3CCCCC3)c2n1 [Dipyridamole]
4. O=C(NOCC1CC1)c1ccc(F)c(F)c1Nc1ccc(I)cc1Cl

A)
[-5.08, -23.7, 2.66, 4.08]
